Duration (min) of cooling: recorded values
System: philtrum skin
Experiment: Philtrum skin assay of cooling
Format: in vivo, human
Settings: 8% wt/vol gel on philtrum skin

Some entries whose results are on file:
COMPOUND	Duration (min) of cooling
CCOC(=O)CNC(=O)[C@@H]1C[C@H](C)CC[C@H]1C(C)C	51 ± 4 min
CNC(=O)C(C)(C(C)C)C(C)C	25 ± 3 min
CCNC(=O)C(CC)(C(C)C)C(C)C [FEMA 4557, N-ethyl-2,2-diisopropyl butanamide]	180+ min

Measured Duration (min) of cooling of COc1ccc(NC(=O)[C@@H]2C[C@H](C)CC[C@H]2C(C)C)cc1 : 38 ± 4 min
